Where do the numbers come from? From patent US20120164142A1.

Biological target: human natriuretic peptide receptor B (NPR-B) (human) (UniProt P20594)
Sequence (P20594 23-1047): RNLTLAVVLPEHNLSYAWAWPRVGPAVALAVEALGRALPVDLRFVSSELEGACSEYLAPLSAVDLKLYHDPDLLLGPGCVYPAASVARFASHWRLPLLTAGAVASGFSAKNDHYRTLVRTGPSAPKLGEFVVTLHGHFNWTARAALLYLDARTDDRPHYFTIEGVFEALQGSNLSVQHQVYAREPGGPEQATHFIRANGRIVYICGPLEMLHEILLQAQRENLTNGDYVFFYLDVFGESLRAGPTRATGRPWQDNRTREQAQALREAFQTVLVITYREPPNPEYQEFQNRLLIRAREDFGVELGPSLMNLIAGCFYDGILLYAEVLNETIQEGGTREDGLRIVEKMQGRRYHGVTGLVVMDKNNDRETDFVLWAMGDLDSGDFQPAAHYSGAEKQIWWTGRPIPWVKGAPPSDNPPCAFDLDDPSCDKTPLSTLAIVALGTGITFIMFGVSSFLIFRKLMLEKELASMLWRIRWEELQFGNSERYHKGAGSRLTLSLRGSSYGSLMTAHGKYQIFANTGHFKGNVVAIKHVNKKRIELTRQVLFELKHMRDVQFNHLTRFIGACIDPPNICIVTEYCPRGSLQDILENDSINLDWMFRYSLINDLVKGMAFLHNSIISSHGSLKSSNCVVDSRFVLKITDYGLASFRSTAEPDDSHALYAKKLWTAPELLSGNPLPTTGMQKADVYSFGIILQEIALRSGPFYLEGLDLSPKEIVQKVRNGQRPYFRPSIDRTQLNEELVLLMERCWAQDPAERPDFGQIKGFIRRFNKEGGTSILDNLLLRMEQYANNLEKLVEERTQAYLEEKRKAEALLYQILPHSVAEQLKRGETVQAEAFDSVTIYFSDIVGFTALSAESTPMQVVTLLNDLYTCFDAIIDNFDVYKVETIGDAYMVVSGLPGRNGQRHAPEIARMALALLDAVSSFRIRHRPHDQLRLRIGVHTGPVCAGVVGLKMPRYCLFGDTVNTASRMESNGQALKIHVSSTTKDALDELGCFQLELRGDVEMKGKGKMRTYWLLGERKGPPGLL
Assay: cell-based or functional assay
Ends that are not written are not given here.
experimental_readout: % loss in efficacy versus CDNP (NPR-B selective efficacy gain) (%)
Quick reminder: number only, in %, skip the unit.

Some solved cases for reference:
binder	assay_value
GLSKGCFGLKLDRIGSMSGLGCPSSADPRPNAPSTSA (ends and bridges not checked; cysteine pairing not given here) [CDNP-S3A4]	27
GLSKGCFGLKLDRIGSMSGLGCPSLRAPRPNAPSTSA (ends and bridges not checked; cysteine pairing not given here) [CDNP-A5]	-27
GLSKGCFGLKLDRIGSMSGLGCPSSAAPRPNAPSTSA (ends and bridges not checked; cysteine pairing not given here) [CDNP-S3A4A5]	69
GLSKGCFGLKLDRIGSMSGLGCPSLAAPRPNAPSTSA (ends and bridges not checked; cysteine pairing not given here) [CDNP-A4A5]	36
GLSKGCFGLKLDRIGSMSGLGCPSLADPRPNAPSTSA (ends and bridges not checked; cysteine pairing not given here) [CDNP-A4]	2

We next turn to a different binder, shown below.
Entry under review: GLSKGCFGLKLDRIGSMSGLGCPSSRAPRPNAPSTSA (ends and bridges not checked; cysteine pairing not given here) [CDNP-S3A5] . Reported % loss in efficacy versus CDNP (NPR-B selective efficacy gain)?
82
